- assayTarget: T1, human Dectin-1 (biosensor tests of Tables 3, 4A and 9; construct not stated) (human, UniProt Q9BXN2 66-247, limits assumed)
- T1 construct: also called hDectin-1
- T1 sequence (looked up): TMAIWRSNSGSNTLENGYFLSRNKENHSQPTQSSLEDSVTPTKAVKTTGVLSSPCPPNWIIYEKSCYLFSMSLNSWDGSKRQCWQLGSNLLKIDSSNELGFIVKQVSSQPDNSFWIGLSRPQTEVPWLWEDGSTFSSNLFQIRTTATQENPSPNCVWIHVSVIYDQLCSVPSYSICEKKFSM
- protocolNotes: Octet response
Below, each of the binders is paired with its reported X = 290 value.

>  <binder>
2M24A.1.24 (Fab, V domains shown, Fab; also called 2M24.1.24) VH: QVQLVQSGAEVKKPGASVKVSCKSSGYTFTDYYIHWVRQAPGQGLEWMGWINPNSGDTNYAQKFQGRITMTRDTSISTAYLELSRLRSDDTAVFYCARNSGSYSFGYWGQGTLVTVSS VL: DIQMTQSPSSVSASVGDRVTITCRASQGISSWLAWYQQKPGKAPKLLIFGASSLQSGVPSRFSGSGSGTDFTLTVSSLQPEDFATYYCQAAYSFPFTFGPGTKVDIE

>  <X = 290>
0.115

$$$$
>  <binder>
2M24A.1.20 (Fab, V domains shown, Fab; also called 2M24.1.20) VH: QVQLVQSGAEVKKPGASVKVSCKSSGYTFTDYYIHWVRQAPGQGLEWMGWINPNSGDTNYAQKFQGRITMTRDTSISTAYLELSRLRSDDTAVFYCARNSGSYSAGYWGQGTLVTVSS VL: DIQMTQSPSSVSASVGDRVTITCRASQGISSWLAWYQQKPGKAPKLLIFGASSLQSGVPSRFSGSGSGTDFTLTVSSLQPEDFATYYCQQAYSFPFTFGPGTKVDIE

>  <X = 290>
0.0981

$$$$
>  <binder>
2M24A.1.15 (Fab, V domains shown, Fab; also called 2M24.1.15) VH: QVQLVQSGAEVKKPGASVKVSCKSSGYTFTDYYIHWVRQAPGQGLEWMGWINPNSGDTNYAQKFQGRITMTRDTSISTAYLELSRLRSDDTAVFYCAANSGSYSFGYWGQGTLVTVSS VL: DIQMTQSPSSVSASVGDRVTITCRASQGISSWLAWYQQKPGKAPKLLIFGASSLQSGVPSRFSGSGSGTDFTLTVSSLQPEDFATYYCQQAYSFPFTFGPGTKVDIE

>  <X = 290>
0.082

$$$$

Value source: patent US20250230247A1
